Tested on: DMS-114
Experiment: NCI tumour cell line growth inhibition, 48 h
The source made the active and inactive calls. Cut-off read from the data, not from the text of the source: active = GI50 up to about 1.1 µM and inactive = higher.
Please answer using one outcome listed in label 1 = active, label 0 = inactive

Consider the worked cases shown below.
- Compound: "CCC12C[N+]3([O-])CCc4c([nH]c5ccccc45)C(C(=O)OC)(c4cc5c(cc4OC)N(C)C4C(O)(C(=O)OC)C(OC(C)=O)C6(CC)C=CCN7CCC54C76)CC(C3)C1O2 (stereo not drawn)"
  Target: "DMS-114"
  Class name: "label 1"
- Compound: "COc1cc2c(c(OC(C)=O)c1OC(C)=O)-c1ccc(SC)c(=O)cc1C(NC(C)=O)CC2 (stereo not drawn)"
  Target: "DMS-114"
  Class name: "label 1"
- Compound: "COC(=O)NN=C1C(C)(C)C(=NNC(=O)OC)C1(C)C"
  Target: "DMS-114"
  Class name: "label 0"
- Compound: "CCNC1CC(n2cc(C)c(=O)[nH]c2=O)OC1CO (stereo not drawn)"
  Target: "DMS-114"
  Class name: "label 0"
- Compound: "O=C(c1ccccc1)C(c1ccccc1)C1(O)C(=O)Nc2ccc(Br)cc21 (stereo not drawn)"
  Target: "DMS-114"
  Class name: "label 0"
- Compound: "CS(=O)(=O)OCCCCOS(C)(=O)=O"
  Target: "DMS-114"
  Class name: "label 0"

Challenge: Assay result, entry CSc1nc(NC2OCC(OC(C)=O)C(OC(C)=O)C2OC(C)=O)c(/N=C\C=N\c2c(NC3OCC(OC(C)=O)C(OC(C)=O)C3OC(C)=O)nc(SC)[nH]c2=O)c(=O)[nH]1 (stereo not drawn) — outcome?
Response given: label 0

Challenge: Assay result, entry CSc1nc2c(nc(N)n2C2OC(CO)C(O)C(O)C2O)c(=O)[nH]1 (stereo not drawn) — outcome?
Response given: label 0

* * *

System: T47D
Experiment: NCI tumour cell line growth inhibition, 48 h
Calls of active or inactive are those of the source. Rule as the data show it: active = GI50 up to about 1.1 µM and inactive = higher.
Each record here notes measured GI50.

Example molecules with recorded GI50:
- Molecule: "O=C(Nc1nnc(-c2ccccc2)o1)C(SC(=S)N1CCOCC1)c1ccccc1 (stereo unspecified)"
  Target: "T47D"
  GI50: "39.8 µM (inactive)"
- Molecule: "c1ccc2c(c1)-c1ccccc1C2NC1=NCCO1"
  Target: "T47D"
  GI50: "39.4 µM (inactive)"

Challenge: State its GI50: `O=C(CCc1ccc(O)cc1)NCCCNC(=O)CCc1ccc(O)cc1`
Response given: > 100 µM (inactive)

Challenge: State its GI50: `COc1ccccc1/[N+]([O-])=C/c1ccccc1OC(=S)S`
Response given: 17.6 µM (inactive)

Challenge: State its GI50: `CC1(C)CCC(C)(C)c2cc(C(=O)Nc3ccc(C(=O)O)cc3)ccc21`
Response given: 15.5 µM (inactive)

Challenge: State its GI50: C=CCC1(O)c2cccc(O)c2C(=O)c2cccc(O)c21 (stereo unspecified)
Response given: 4.12 µM (inactive)

* * *

System: LOX IMVI
Test: NCI tumour cell line growth inhibition, 48 h
Activity calls are given as the source filed them. Rule as the data show it: active = GI50 up to about 1.1 µM and inactive = higher.
Please answer using one outcome listed in active, inactive

Consider the worked cases shown below.
- Molecule: "CC(C)(C)CC(C)(C)N/C(N)=N/O"
  Class name: "inactive"
- Molecule: "O=c1cc(-c2ccccc2)[nH]c2ccc(N3CCCCC3)cc12"
  Class name: "active"
- Molecule: "O=[N+]([O-])c1ccc2c(c1)c(S(=O)(=O)O)cc1nonc12"
  Class name: "inactive"

Challenge: Assay result, entry O=S(=O)(c1ccccc1)N1N=C2c3ccccc3CCC[C@H]2C1c1ccccc1 (stereo partly drawn) — outcome?
Response given: inactive

Challenge: Assay result, entry Fc1ccc(C(OCCN2CCC3CCC(C2)N3C/C=C/c2ccco2)c2ccc(F)cc2)cc1 (stereo not drawn) — outcome?
Response given: inactive

Challenge: Assay result, entry `C/C(=N\NC(=S)N(C)C)c1ncc[nH]1` — outcome?
Response given: inactive

Challenge: Assay result, entry `Cc1cc(NS(=O)(=O)c2ccc(NC(=O)c3cccc4c(Nc5ccc(S(=O)(=O)N=C(N)N)cc5)c5ccccc5nc34)cc2)no1` — outcome?
Response given: inactive

Challenge: Assay result, entry `O=C(O)CCO/N=C1/C(=C2/C(=O)Nc3ccccc32)Nc2ccccc21` — outcome?
Response given: inactive

* * *

Tested on: UACC-62
Test: NCI tumour cell line growth inhibition, 48 h
The source made the active and inactive calls. No stated cut-off is given here; in the data, active = GI50 up to about 1.1 µM and inactive = higher.
Each record here notes measured GI50.

- Molecule: "C#CCN(N=O)C(=O)ON1C(=O)CCC1=O"
  Value: "> 100 µM (inactive)"
- Molecule: "O=S1(=O)c2cc(S(=O)(=O)n3ccnc3)ccc2NC2=NCCCN21"
  Value: "48.5 µM (inactive)"
- Molecule: "COc1cc([C@@H]2c3cc4c(cc3[C@@H](OC3OC5COC(C)OC5C(OC(=O)CN5CCN(C)CC5)C3OC(=O)CN3CCN(C)CC3)C3COC(=O)[C@@H]32)OCO4)cc(OC)c1OC(=O)CN1CCN(C)CC1 (stereo not given in full)"
  Value: "> 100 µM (inactive)"
- Molecule: "CN(C)c1ccc(/N=N\\c2cccc3ccoc23)cc1"
  Value: "> 100 µM (inactive)"
- Molecule: "CN(C)CCNc1ncnc2nc(-c3ccccc3)c(-c3ccccc3)nc12"
  Value: "> 100 µM (inactive)"

Challenge: State its GI50: CCOC(=O)C1C2CCC(C2)C1(CCl)C(=O)OCC (stereo not given)
Response given: > 100 µM (inactive)

* * *

Tested on: M14
Experiment: NCI tumour cell line growth inhibition, 48 h
Active and inactive are the calls of the source. No stated cut-off is given here; in the data, active = GI50 up to about 1.1 µM and inactive = higher.
Readout: GI50

Challenge: State its GI50: `N=C(N)SCCc1ccccn1`
Response given: > 100 µM (inactive)

Challenge: State its GI50: Cc1ccc(NC(=O)/C(CC2Nc3c(ccc4c3C(=O)c3ccccc3C4=O)NC2O)=N/NC(C)(C)C)cc1 (stereo not given)
Response given: 18.7 µM (inactive)

Challenge: State its GI50: COC1C(=[N+]=[N-])C(=O)NC(=O)N1C1OC(COC(c2ccccc2)(c2ccccc2)c2ccccc2)C(O)C1O (stereo not given)
Response given: 19 µM (inactive)

Challenge: State its GI50: `O=C(/C=C/c1ccccc1)c1ccccn1`
Response given: 14.5 µM (inactive)

Challenge: State its GI50: COC(=O)/C(=N\NC(=O)c1ccccc1O)C(C#N)c1ccc(Cl)cc1 (stereo not given)
Response given: 40.6 µM (inactive)

* * *

System: NCI/ADR-RES
Experiment: NCI tumour cell line growth inhibition, 48 h
The source made the active and inactive calls. Cut-off read from the data, not from the text of the source: active = GI50 up to about 1.1 µM and inactive = higher.
Readout: GI50

Example molecules with recorded GI50:
- Compound smiles: "COC(=O)c1c(C(=O)OC)c(C(c2ccccc2)c2ccccc2)n(-c2ccccc2)c1Cl"
  GI50: "4.24 µM (inactive)"
- Compound smiles: "CCOC(=O)c1c(NS(=O)(=O)c2ccccc2)sc2c1CCCC2"
  GI50: "62.1 µM (inactive)"

Challenge: State its GI50: `O=C(Nc1ccccc1)c1cc2c(cc1Cl)Sc1nccn1S2(=O)=O`
Response given: 41.8 µM (inactive)

Challenge: State its GI50: `CNC(=O)c1nn[nH]c1Sc1c([N+](=O)[O-])ncn1C`
Response given: > 100 µM (inactive)

Challenge: State its GI50: `O=C(O)c1ccccc1NC(=S)c1ccccc1`
Response given: 51.1 µM (inactive)

Challenge: State its GI50: `COC1=CC(=O)C2=C(C[C@@]3(C)C(=C2)C(CO)=CC[C@H]3O)C1=O`
Response given: 23.5 µM (inactive)

* * *

Test system: LXFL 529
Experiment: NCI tumour cell line growth inhibition, 48 h
The source made the active and inactive calls. Cut-off read from the data, not from the text of the source: active = GI50 up to about 1.1 µM and inactive = higher.
Please answer using one outcome listed in true for active, false for inactive

Challenge: Assay result, entry CCn1cc(C(=O)O)c(=O)c2cc(F)c(N3CCNCC3)nc21 [ENOXACIN] — outcome?
Response given: false

Challenge: Assay result, entry Cc1cc(Cl)ccc1NC(=O)C(=O)C(C(=O)c1ccc2ccccc2c1)C1OC(=O)c2ccccc21 (stereo not given) — outcome?
Response given: false

Challenge: Assay result, entry O=C1CSC(C(/N=N/c2ccc(Cl)cc2)c2nc3ccccc3[nH]2)=N1 (stereo not given) — outcome?
Response given: false

Challenge: Assay result, entry COc1cc2c(c(OC(C)=O)c1OC(C)=O)-c1ccc(SC)c(=O)cc1C(NC(C)=O)CC2 (stereo not given) — outcome?
Response given: true

Challenge: Assay result, entry `O=C(O)C1(C(=O)O)CC1` — outcome?
Response given: false

Challenge: Assay result, entry CC1=C2C(=CC(C)(C)C2O)C(=O)C(C)(O)C12CC2 (stereo not given) — outcome?
Response given: true

* * *

Each record here notes measured GI50.
Test system: SF-539
Assay: NCI tumour cell line growth inhibition, 48 h
Activity calls are given as the source filed them. Cut-off read from the data, not from the text of the source: active = GI50 up to about 1.1 µM and inactive = higher.

Example compounds with recorded GI50:
- Compound: "CCOC(=O)c1nc2cc(C(F)(F)F)ccc2nc1Nc1cc(OC)c(OC)c(OC)c1"
  GI50: "> 100 µM (inactive)"
- Compound: "CCCc1c[nH]c(-c2ccc(-c3cc(CCC)c(C=O)[nH]3)s2)c1"
  GI50: "18.7 µM (inactive)"
- Compound: "C=CCC1(O)c2cccc(O)c2C(=O)c2cccc(O)c21 (stereo not drawn)"
  GI50: "31.8 µM (inactive)"

# evaluate next
Challenge: State its GI50: CCOC(=O)C(NC(=O)c1ccccc1)(Nc1ccc(S(=O)(=O)Nc2ccc(OC)nn2)cc1)C(F)(F)F (stereo not drawn)
Response given: > 100 µM (inactive)
